Tested on: Erythrocytes
assay-info: RBC hemolysis assay
Assay type: cell-based, mice
condition: RBC hemolysis at pH 5.0; second value of the cell (pH 7.4:5.0); read-out: HL50 (μM) pH 5.0
Item-by-item account of EC50
measure: EC50 (µM)

INSERT INTO assay_data (substance, units_of_measure, observed_value) VALUES
  ('(m)GWKKGIGAVLKVLTTGLPALISLIKRKRQQ [Mal-melittin]', 'µM', 4.8),
  ('(CWKKGIGAVLKVLTTGLPALISLIKRKRQQ)2 [Dimeric-melittin]', 'µM', 1.2),
  ('CWKKGIGAVLKVLTTGLPALISLIKRKRQQ [Cys-melittin]', 'µM', 0.7);
